Here's what we have: SI (CC50/EC50) numbers for TBEV strain Neudoerfl.
result type: SI (CC50/EC50)

[[record]]
record_smiles = "NCCOc1cc(NC(=O)c2cc(OCc3cn(CCC(=O)O)nn3)cc(C(=O)Nc3cc(OCCN)c4ccccc4n3)n2)nc2ccccc12"
assay_system = "TBEV strain Neudoerfl"
observed_value = ">11.23"

[[record]]
record_smiles = "CCC1=C(C)c2cc3[nH]c(cc4nc(cc5c(CCC(=O)O)c(C)c(cc1n2)n5C)C(CCC(=O)O)=C4C)c(C)c3CC"
assay_system = "TBEV strain Neudoerfl"
observed_value = ">5000"

[[record]]
record_smiles = "C[n+]1cc(NC(=O)c2ccc3ccc4ccc(C(=O)Nc5cc6ccccc6[n+](C)c5)nc4c3n2)cc2ccccc21"
assay_system = "TBEV strain Neudoerfl"
observed_value = ">8.66"

[[record]]
record_smiles = "CN(C)c1ccc(Nc2c3ccc(NC(=O)CCN4CCCC4)cc3nc3cc(NC(=O)CCN4CCCC4)ccc23)cc1"
assay_system = "TBEV strain Neudoerfl"
observed_value = ">1"

[[record]]
record_smiles = "O=C1c2cccc(O)c2C(=O)c2c(O)cc(CO)cc21"
assay_system = "TBEV strain Neudoerfl"
observed_value = ">1"

